Would you kindly list MIC for each of these compounds?
tested on: Monilinia fructicola; experiment: Antifungal activity against Monilinia fructicola on potato sucrose agar medium at 28 or 20 degC for 2 or 3 days; assay type: functional

Request: Endpoint output: MIC of CCCC[C@H]1CC[C@@H](Cc2ccc(Cl)cc2)[C@]1(O)Cn1cncn1 . Value?
Response: 50 µg/mL

Request: Endpoint output: MIC of CC[C@@H]1CC[C@@H](Cc2ccc(Cl)cc2)[C@]1(O)Cn1cncn1 . Value?
Response: 0.4 µg/mL

Request: Endpoint output: MIC of CCC[C@@H]1CC[C@H](Cc2ccc(Cl)cc2)[C@@]1(O)Cn1cncn1 . Value?
Response: 0.4 µg/mL

Request: Endpoint output: MIC of O[C@]1(Cn2cncn2)CCC[C@@H]1Cc1ccc(Cl)cc1 . Value?
Response: < 0.2 µg/mL

Request: Endpoint output: MIC of CCCC[C@@H]1CC[C@H](Cc2ccc(Cl)cc2)[C@@]1(O)Cn1cncn1 . Value?
Response: 6.3 µg/mL
